# EXPERIMENT_SUMMARY: Half-lives and pharmacokinetic parameters of polypeptides vs HM-1
# MEASUREMENT_CONTEXT: in vivo
Peptide text beside a SMILES is read from it. * marks the point of attachment. X74 = O=C1C=CC(=O)N1c1cccc(CCCCCCCCCCC(=O)*)c1; X47 = O=C1C=CC(=O)N1c1ccccc1CCCCC(=O)*; X79 = O=C1C=CC(=O)N1c1cccc(CCC(=O)*)c1
OBSERVATION_TYPE: clearance (mL/min/kg)
Numbers only, in mL/min/kg.

# COMPOUND, ENDPOINT_RESULT
measured = [
    ("C[C@H](NC(=O)CNC(=O)[C@H](CCCNC(=N)N)NC(=O)CCc1cccc(N2C(=O)C=CC2=O)c1)C(=O)N[C@@H](CC(=O)O)C(=O)N[C@@H](CCCNC(=N)N)C(=O)N[C@@H](C)C(=O)NCC(=O)NCC(=O)NCC(=O)NCC(=O)N[C@@H](CCCNC(=N)N)C(=O)NCC(=O)N[C@@H](CC(=O)O)C(=O)O [X26] (X79-RGADRAGGGGRGD-OH)", 0.482),
    ("C[C@H](NC(=O)CNC(=O)[C@H](CCCNC(=N)N)NC(=O)CCCCCCCCCCc1cccc(N2C(=O)C=CC2=O)c1)C(=O)N[C@@H](CC(=O)O)C(=O)N[C@@H](CCCNC(=N)N)C(=O)N[C@@H](C)C(=O)NCC(=O)NCC(=O)NCC(=O)NCC(=O)N[C@@H](CCCNC(=N)N)C(=O)NCC(=O)N[C@@H](CC(=O)O)C(=O)O [X34] (X74-RGADRAGGGGRGD-OH)", 0.602),
]

Now consider the entry below.
Enquiry: Name the recorded clearance of the compound listed here: C[C@H](NC(=O)CNC(=O)[C@H](CCCNC(=N)N)NC(=O)CCCCc1ccccc1N1C(=O)C=CC1=O)C(=O)N[C@@H](CC(=O)O)C(=O)N[C@@H](CCCNC(=N)N)C(=O)N[C@@H](C)C(=O)NCC(=O)NCC(=O)NCC(=O)NCC(=O)N[C@@H](CCCNC(=N)N)C(=O)NCC(=O)N[C@@H](CC(=O)O)C(=O)O [X16] (X47-RGADRAGGGGRGD-OH)
Return: 0.53
